Test: protein stability index of a GFP-peptide fusion (GPS, HEK-293T) (PSI 1-6); higher = more stable;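 also: 24-mer peptide tiles fused after GFP, lentivirally expressed, FACS-sorted into six equal bins by GFP/DsRed ratio, decoded by Illumina sequencing, PSI is the read-weighted mean bin number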
Settings: treatment: MLN4924 1 uM, 8 h; c terminus: a fixed tail appended
Decision: protein stability index >= 3 yields TRUE, all other cases yield FALSE.

These solved cases illustrate the format of a correct answer.
Form field: protein stability index at least 3? Entry: GPMEEVERQVLPDPEVLEAVGDRQ [PBXIP1] TRUE

Form field: protein stability index at least 3? Entry: GIVGGFTQMIREGGARSLWRGNGI [SLC25A25] FALSE

Others:
Form field: protein stability index at least 3? Entry: IRIKLDPCHPTVKNWRNFASKWGM [EDARADD] FALSE

Form field: protein stability index at least 3? Entry: QRNGLVFIYDMCGSNYANFELDLG [PTPN9] FALSE

Form field: protein stability index at least 3? Entry: DLFEKKGYTFDYAYDWVGRPIPTP [CSNK1G1] FALSE

Form field: protein stability index at least 3? Entry: LDCADALLKAGADVNKTDHSQRTA [INVS] TRUE

Form field: protein stability index at least 3? Entry: CICGFTHDDGYMICCDKCSVWQHI [KMT2E] TRUE

Form field: protein stability index at least 3? Entry: PSHYDVQDRFRIELSEEGAEGRVV [MOSPD3] TRUE

----------
Test: protein stability index of a GFP-peptide fusion (GPS, HEK-293T) (PSI 1-6); higher = more stable
Conditions: treatment: MLN4924 1 uM, 8 h; c terminus: a fixed tail appended
Decision: protein stability index >= 3 yields 1, all other cases yield 0.

These solved cases illustrate the format of a correct answer.
Form field: protein stability index at least 3? Entry: EPEEEILGSDDEEQEDPADYCKGG [SRPK2] 1

Form field: protein stability index at least 3? Entry: NGEYVPWLYCYDPVMDVWARKQDM [KLHL14] 0

Form field: protein stability index at least 3? Entry: ILIQHQKAKHFKCHICHKKLYTGP [ZNF207] 0

Others:
Form field: protein stability index at least 3? Entry: LCGAGSEPSIAPTSCAGNLPSRPP [RSPH3] 1

Form field: protein stability index at least 3? Entry: LKAKKVWYDMFRDAAAILLDEQNK [ZMAT5] 0

Form field: protein stability index at least 3? Entry: NHLPDPEIFRQRFRQFGYQDSPGP [ZNF24] 1

Form field: protein stability index at least 3? Entry: DMRNSATFKSFEDRVGTIKSKVVG [TPD52L2] 1

Form field: protein stability index at least 3? Entry: SYSIQKVIGFAKMIPGFRDLTSED [VDR] 0

----------
Task for the reader: assign each of the following sequences its reported protein stability index.
Experiment: protein stability index of a GFP-peptide fusion (GPS, HEK-293T) (PSI 1-6); higher = more stable
Conditions: treatment: DMSO; c terminus: a fixed tail appended
Give bare numbers.

Guide cases for protein stability index, answers given:
Per the record, SSPVDLVTATDQKVEKMLISSIKE [IMPA1] has protein stability index of 4.38

Per the record, RIDGKLDSPSRSPSKVEVTEKTTT [C2CD2L] has protein stability index of 5.42

Per the record, VCTISSTGPLQPQPKKPEDEPQET [PKD2L1] has protein stability index of 5.39

Per the record, EGVISVSEDRTVRVWLKRDSGQYW [WDFY2] has protein stability index of 2.17

Per the record, RFAWPKVLKISYKRNNFYIKIRPG [EPB41L3] has protein stability index of 2.89

Per the record, EALAATWEQPWASEVFGPERMPPS [PXN] has protein stability index of 3.33

Provide protein stability index for all items below, preserving their order.
1. YMSQVLEKEMKAQEQRLGIRISMS [GMPPB]
2. GQYRANEGTSSIVMEIQKQIEKKE [TAF7L]
3. ACALLLTSVDHDRAPVVGVRVNVL [DLC1]
4. DTYDSVYLHPNSYSCACLASGSVL [HDAC6]
5. AQRPGITHGVGLVLRVEQQPHLPL [SCNN1D]
6. SDLNVVASFDRRGEYIYTGNAKGK [RBBP5]
7. PSVMDPGAFETVLASAYTGRLSMA [ZBTB22]

1: 2.38; 2: 5.06; 3: 2.33; 4: 2.21; 5: 2.59; 6: 4.32; 7: 2.3

----------
Assay: protein stability index of a GFP-peptide fusion (GPS, HEK-293T) (PSI 1-6); higher = more stable
Details: treatment: MLN4924 1 uM, 8 h; c terminus: a fixed tail appended
Task for the reader: assign each of the following sequences its reported protein stability index.

Per the record, SSGLQDVTGPDNGVRESETEQGFG [NFE2L1] has protein stability index of 5.39

Per the record, YIYYNEKYGGPNHHLPLPDNWKSQ [CPN1] has protein stability index of 2.35

Per the record, LESLQDGAAESPYAYSNGIDYKTT [RAB40C] has protein stability index of 4.5

Per the record, EPEMAVFLQNAKTLLKKISEASKA [TRIM55] has protein stability index of 2.25

Per the record, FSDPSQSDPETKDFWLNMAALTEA [FCHO1] has protein stability index of 3.79

Provide protein stability index for all items below, preserving their order.
1. PAPTTTTATREEASTSLPTKPTQG [CLPTM1]
2. LEQFVAILPKELQTWVRDHHPENG [ZNF24]
3. LTGLNYEAPKYHIPYWVAYYLALL [NSDHL]
4. DSLTSLQWLQEFSILNAKAPALPP [FOXJ1]
5. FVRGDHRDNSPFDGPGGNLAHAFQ [MMP1]
6. GLSPYSDYEFRVVAVNNIGRGPPS [PTPRD]
7. DEGGITKQPPVTQSKTASDKSPST [FBF1]

5.57
3.23
2.87
2.19
3.06
3.14
5.56

----------
Assay: protein stability index of a GFP-peptide fusion (GPS, HEK-293T) (PSI 1-6); higher = more stable
Details: treatment: DMSO; c terminus: a fixed tail appended
Task for the reader: assign each of the following sequences its reported protein stability index.
Numbers only.

Guide cases for protein stability index, answers given:
Per the record, DDWEDDYDYPEEEQLSGAGYRVSA [EID1] has protein stability index of 4.9

Per the record, YNILKTCRGHTLERSVFSERTEES [CARM1] has protein stability index of 2.56

Per the record, TWKKNRRQLAYSTVGTPDYIAPEV [STK38L] has protein stability index of 3.39

Per the record, QALSGTPKKGPAPSLSPGSSCVKY [TSPAN10] has protein stability index of 4.16

Per the record, TDNGTFNLSRGQTPLTEGSEDLDG [RETREG3] has protein stability index of 5.25

Provide protein stability index for all items below, preserving their order.
1. SAKDGGPQPPDAPQLVSSAREGSS [PLEKHN1]
2. RRTAENKLDTKYPYVCHAELNAIM [DCTD]

[5.49, 2.29]

----------
Test: protein stability index of a GFP-peptide fusion (GPS, HEK-293T) (PSI 1-6); higher = more stable
Conditions: treatment: MLN4924 1 uM, 8 h; c terminus: a fixed tail appended
Decision: protein stability index >= 3 yields Met, all other cases yield Not met.

These solved cases illustrate the format of a correct answer.
Form field: protein stability index at least 3? Entry: ECGKAFSQSSYLSQHRRIHSGEKP [ZNF232] Met

Form field: protein stability index at least 3? Entry: SDLNVVASFDRRGEYIYTGNAKGK [RBBP5] Met

Form field: protein stability index at least 3? Entry: LALCQRYYHRGHVDPANDTFDIDP [MCOLN1] Met

Form field: protein stability index at least 3? Entry: LASYLEKVRQLERDNAELEKLIQE [KRT34] Met

Form field: protein stability index at least 3? Entry: WFQDPTRFTGTMDAFVKIVRHEGT [SLC25A39] Not met

Form field: protein stability index at least 3? Entry: KEETNHSEMAEDLCKIGSERSLVL [IKZF1] Met

Form field: protein stability index at least 3? Entry: LSEPDPSHTLEERVVHWYFKLLDK [SMOC2] Not met

Form field: protein stability index at least 3? Entry: SLMDLAIEEGFNPVQASQLEEEFD [NFE2L1] Met

Others:
Form field: protein stability index at least 3? Entry: LEWHDSLFQILSERQDMYQCLVEG [ZNF511] Not met

Form field: protein stability index at least 3? Entry: IFEDRIRGIDIIKWMERYLRDKTV [TRAF3IP2] Not met

Form field: protein stability index at least 3? Entry: TPHTPKSLLSKARGIDSSSVKLRG [WEE1] Met

Form field: protein stability index at least 3? Entry: NLLFKPPVESHIQKNKKILKSAKD [KMT2E] Met

Form field: protein stability index at least 3? Entry: RLINHSKCGNCQTKLHDIDGVPHL [KMT5A] Not met
